The binders listed here are annotated with their kon.
experimental-system: T1, monomeric cynomolgus monkey CSF1R ectodomain protein (cynomolgus monkey, UniProt P07333 20-517 (human entry))
T1 construct: also called monomeric cyno CSF1R; Cyno CSF1R
T1 chain: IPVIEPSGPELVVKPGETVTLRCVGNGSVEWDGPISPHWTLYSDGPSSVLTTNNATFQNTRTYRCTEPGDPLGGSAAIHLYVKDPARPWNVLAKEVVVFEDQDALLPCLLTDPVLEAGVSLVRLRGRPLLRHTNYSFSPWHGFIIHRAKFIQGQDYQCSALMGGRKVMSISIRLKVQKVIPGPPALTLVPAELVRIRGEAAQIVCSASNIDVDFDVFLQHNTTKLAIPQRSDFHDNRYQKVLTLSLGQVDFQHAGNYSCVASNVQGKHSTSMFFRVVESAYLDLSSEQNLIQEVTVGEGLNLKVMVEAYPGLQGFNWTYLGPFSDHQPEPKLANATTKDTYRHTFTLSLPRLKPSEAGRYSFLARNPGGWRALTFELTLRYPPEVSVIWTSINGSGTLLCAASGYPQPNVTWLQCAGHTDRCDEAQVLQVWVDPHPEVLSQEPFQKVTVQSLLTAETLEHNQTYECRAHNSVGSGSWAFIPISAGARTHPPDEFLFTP
experimental-details: SPR Biacore, IgG captured, monomeric CSF1R analyte
Entry rule: numbers only, all in M⁻¹ s⁻¹.

Before answering, review these 3 worked examples.
humanized anti-CSF1R antibody 0301 (hu0301) (antibody, human IgG4, V domains shown, also called mAb-1) VH: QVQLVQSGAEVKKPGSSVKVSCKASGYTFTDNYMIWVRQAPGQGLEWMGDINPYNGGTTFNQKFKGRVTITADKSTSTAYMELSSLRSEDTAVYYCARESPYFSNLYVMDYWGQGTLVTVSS VL: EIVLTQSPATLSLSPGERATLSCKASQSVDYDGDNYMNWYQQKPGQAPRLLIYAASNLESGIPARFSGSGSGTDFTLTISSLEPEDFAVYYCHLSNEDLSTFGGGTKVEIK :: 500000
MH4 (antibody, V domains shown, Designer clone, human IgG4(S228P)/Ckappa IgG) VH: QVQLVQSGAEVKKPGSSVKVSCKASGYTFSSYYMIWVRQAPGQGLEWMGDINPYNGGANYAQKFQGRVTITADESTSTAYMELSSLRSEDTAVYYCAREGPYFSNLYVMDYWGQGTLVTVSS VL: EIVLTQSPATLSLSPGERATLSCRASQSVSYQGENYLAWYQQKPGQAPRLLIYDASNRATGIPARFSGSGSGTDFTLTISSLEPEDFAVYYCQLSNQDLLTFGGGTKVEIK :: 470000
29A03 (antibody, human IgG4, V domains shown, Library-derived clone, tested as human IgG4(S228P)/Ckappa IgG; framework residue limits counted on the grafts) VH: QVQLVQSGAEVKKPGSSVKVSCKASGYTFSSNYMIWVRQAPGQGLEWMGDINPYNGGATYNQKFQGRVTITADESTSTAYMELSSLRSEDTAVYYCAREPPYFSNLYVMDYWGQGTLVTVSS VL: EIVLTQSPATLSLSPGERATLSCRASQSVEYEGENYLNWYQQKPGQAPRLLIYAASNRATGIPARFSGSGSGTDFTLTISSLEPEDFAVYYCQLSNQDLLTFGGGTKVEIK :: 270000

Input line: Which kon value is on record for murine anti-CSF1R antibody 0301 (mu0301), v-domains in human IgG4(S228P) format (antibody, V domains shown) VH: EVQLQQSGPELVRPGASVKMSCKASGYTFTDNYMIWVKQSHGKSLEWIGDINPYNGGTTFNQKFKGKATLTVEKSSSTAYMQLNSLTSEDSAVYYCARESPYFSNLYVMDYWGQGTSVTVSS VL: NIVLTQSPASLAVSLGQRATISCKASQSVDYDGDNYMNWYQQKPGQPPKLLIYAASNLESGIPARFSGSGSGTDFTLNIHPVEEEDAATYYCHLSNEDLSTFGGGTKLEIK ?
Output line: 740000

Provenance of the data: patent US20210301026A1
